# system-tested: human ether-à-go-go-related gene (hERG) potassium channel (human);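 note: peak tail current of the secondary pulse compared with the same well before compound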
# test-description: primary screen, population patch clamp on CHO cells stably expressing hERG; higher = less effect of the substance
Screen size: about 310,000 compounds; about 14,000 (4.5%) showed an effect of 50% or more. The effect is printed as a negative number. For the sample, strong results were picked, then their nearest neighbours and some compounds at random.
endpoint-label: hERG current change (%, negative = inhibition) at 10uM

> print(dat)
                                    compound  result
 1  CC(C)(C)CN1CCN(Cc2c[nH]c3ccccc23)CC1CCO (centres unmarked)   15.5%
 2  O=C(CSc1nnc(COc2ccc(Cl)cc2)n1Cc1ccco1)c1ccccc1F   13.1%
 3         C=CCN(CC=C)C(=S)Nc1ccc(OC)c(OC)c1   10.3%
 4  CC(Sc1nnc(COc2ccc(Cl)cc2)n1Cc1ccco1)C(=O)N1CCNC1=O (centres unmarked)  -55.9%
 5  CCN(CC)CCNc1ncnc2c1sc1nc(N3CCOCC3)c3c(c12)CCCC3  -32.8%
 6  CC(C)=CCN1CCN(Cc2nc(-c3ccccc3)cs2)CC1CCO (centres unmarked)  -60.4%
 7  COc1ccccc1NC(=O)CSc1nnc(COc2ccc(Cl)cc2)n1Cc1ccco1  -12.7%
 8  CN(CCO)c1ncnc2c1sc1nc(N3CCOCC3)c3c(c12)CCC3  -55.2%
 9  Cl.Clc1ccc(OCc2nnc(SCCN3CCCCC3)n2Cc2ccco2)cc1  -75.9%
10  CC(Sc1nnc(COc2ccc(Cl)cc2)n1Cc1ccccc1)C(=O)O (centres unmarked)   3.06%
11  Cc1cc(/C=C2\Cc3ccccc3C2=O)c(C)n1-c1ccccc1   1.62%
12        CCc1sc(C(=O)N2CCC3(CC2)OCCO3)cc1Br  -7.08%
13  CC(C)=CCN1CCN(Cc2cccnc2)CC1CCO (centres unmarked)  -1.24%
14  OCCN(CCO)c1ncnc2c1sc1nc(N3CCOCC3)c3c(c12)CCCC3  -13.3%
15  CC(=O)Nc1ccc(S(=O)(=O)NCC2CCC(C(=O)NCCCN(C)Cc3ccccc3)CC2)cc1 (centres unmarked)   6.98%
16  OCCN1CCN(c2ncnc3c2sc2nc(N4CCOCC4)c4c(c23)CCC4)CC1  -22.1%
17  CCn1c(=O)cc(OCC(=O)NCCCN2CC(C)CC(C)C2)c2ccccc21 (centres unmarked)  -12.5%
18  COc1ccccc1C(CNC(=O)c1cc(S(=O)(=O)N2CCOCC2)ccc1C)N1CCCC1 (centres unmarked)   2.53%
19  Cn1c(=O)cc(OCC(=O)NCCCN2CCN(Cc3ccccc3)CC2)c2ccccc21  -17.8%
20  O=[N+]([O-])c1cccc(-c2ccc(C(=S)N3CCN(c4ccccc4)CC3)o2)c1   27.7%

* * *

# system-tested: human ether-à-go-go-related gene (hERG) potassium channel (human, UniProt Q12809);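 note: peak tail current of the secondary pulse compared with the same well before compound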
# Sequence (Q12809 whole entry, looked up): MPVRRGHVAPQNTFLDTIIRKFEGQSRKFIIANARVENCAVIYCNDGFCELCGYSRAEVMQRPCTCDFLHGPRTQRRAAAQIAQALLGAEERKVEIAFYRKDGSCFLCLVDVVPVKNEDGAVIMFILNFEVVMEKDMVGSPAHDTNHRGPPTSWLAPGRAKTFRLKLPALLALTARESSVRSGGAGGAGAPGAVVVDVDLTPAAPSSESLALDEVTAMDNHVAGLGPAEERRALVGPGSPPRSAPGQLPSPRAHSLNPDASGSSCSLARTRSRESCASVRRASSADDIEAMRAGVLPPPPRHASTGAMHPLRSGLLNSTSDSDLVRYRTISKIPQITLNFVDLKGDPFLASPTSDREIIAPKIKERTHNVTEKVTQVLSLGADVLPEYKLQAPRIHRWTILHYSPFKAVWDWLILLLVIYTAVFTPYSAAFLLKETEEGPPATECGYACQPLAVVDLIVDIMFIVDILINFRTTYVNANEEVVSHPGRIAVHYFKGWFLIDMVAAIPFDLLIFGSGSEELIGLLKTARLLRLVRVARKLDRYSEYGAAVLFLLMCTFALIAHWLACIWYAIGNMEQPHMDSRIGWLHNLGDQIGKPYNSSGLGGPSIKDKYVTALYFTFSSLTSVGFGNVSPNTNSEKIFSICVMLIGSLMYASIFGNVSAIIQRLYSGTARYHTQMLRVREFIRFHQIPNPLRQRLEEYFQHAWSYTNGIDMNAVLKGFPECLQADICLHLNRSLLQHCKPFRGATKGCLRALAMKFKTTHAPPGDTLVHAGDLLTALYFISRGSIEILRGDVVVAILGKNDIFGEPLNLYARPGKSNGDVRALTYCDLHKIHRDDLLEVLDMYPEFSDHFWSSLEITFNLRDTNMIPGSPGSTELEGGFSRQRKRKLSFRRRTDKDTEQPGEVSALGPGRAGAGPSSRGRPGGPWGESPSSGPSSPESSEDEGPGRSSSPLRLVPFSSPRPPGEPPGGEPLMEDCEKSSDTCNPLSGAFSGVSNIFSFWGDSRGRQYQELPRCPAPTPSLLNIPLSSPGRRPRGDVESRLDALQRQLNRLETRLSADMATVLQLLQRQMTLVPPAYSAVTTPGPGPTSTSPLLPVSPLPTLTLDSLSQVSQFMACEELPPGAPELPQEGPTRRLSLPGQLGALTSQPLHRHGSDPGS
# test-description: primary screen, population patch clamp on CHO cells stably expressing hERG; higher = less effect of the substance
In all, about 310,000 compounds went through this assay and about 14,000 (4.5%) showed an effect of 50% or more. Effects have a minus sign here. This excerpt belongs to a sample that is enriched for strong results.
Threshold rule: hERG current change (%, negative = inhibition) at 10uM greater than or equal to -20% is 1.0; below that, 0.0.

> print(dat)
                                   compound  answer.label
1  O=C(CSc1nnnn1-c1ccccc1)N1CCN(C(=O)c2ccco2)CC1           0.0
2  Cc1ccc(OCC(=O)N2N=C(C(F)(F)F)CC2(O)C(C)(C)C)cc1C (centres unmarked)           1.0
3  Cc1ccc(-n2nnnc2SCC(=O)NNC(=O)c2ccco2)c(C)c1           1.0
4  O=C(c1ccco1)N1CCN(S(=O)(=O)c2ccc(Br)s2)CC1           1.0
5  Cc1cc(C(F)(F)F)nn1CC(=O)Nc1ccc2c(c1)OCO2           1.0
